# maps each entry to its ELISA (A450)
Molecular target: T1, Human CD3 Gamma (CD3gamma) protein (human, UniProt P09693 23-116)
T1 construct: extracellular domain; Bought protein
T1 sequence (P09693 23-116): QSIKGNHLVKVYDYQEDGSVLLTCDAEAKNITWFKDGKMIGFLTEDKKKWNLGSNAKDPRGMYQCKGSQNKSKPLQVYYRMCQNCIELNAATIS
Experiment: ELISA, antigen coated on plate, HRP-labelled 2nd antibody; further: test concentration or dose not given here
Give the value, in units of A450, as a plain number.

binder	experimental_endpoint	unit_label	reported_value
WBP3311_2.306.4 (antibody, IgG2b, V domains shown, Mouse monoclonal antibody from hybridoma; also called W3311-2.306.4; W3311-2.306.4-mIgG2bK) VH: QVQLQQSGPELVKPGASVRISCKASGFAFTDYYIHWVKQRPGQGLEWIGWISPGNVNTKYNENFKGRATLTADLSSSTAYMQLSSLTSEDSAVYFCARDGYSLYYFDYWGQGTTLTVSS VL: DIVMSQSPSSLTVSAGEKVTMSCKSSQSLLNSRTRKNYLAWYQQKPGQSPKLLIYWASTRQSGVPDRFTGSGSGTAFTLTISGVQAEDLAVYFCTQSHTLRTFGGGTKLEIK	ELISA (A450)	A450	0.06
WBP3311_2.844.8 (antibody, V domains shown, Mouse monoclonal antibody from hybridoma; also called W3311-2.844.8; clone 2.844.8) VH: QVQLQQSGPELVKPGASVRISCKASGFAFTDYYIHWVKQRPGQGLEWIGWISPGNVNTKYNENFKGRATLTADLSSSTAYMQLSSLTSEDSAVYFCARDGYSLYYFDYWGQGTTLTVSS VL: DIVMSQSPSSLTVSAGEKVTMSCKSSQSLLNSRTRKNYLAWYQQKPGQSPKLLIYWASTRESGVPDRFTGSGSGTAFTLTISGVQAEDLAVYFCTQSHTLRTFGGGTKLEIK	ELISA (A450)	A450	0.07
WBP3311_2.400.5 (antibody, V domains shown, Mouse monoclonal antibody from hybridoma; also called W3311-2.400.5) VH: QVQLQQSGPELVNPGASVKISCKASGYSFTNYYLHWVKQRPGQGLEWIGWIFPESDNTKYNEKLKGKATLTADTSSDTAYMHLSSLTFEDSAVYFCARDSVGNYFFDFWGQGTTLTVSS VL: DIVMSQSPSSLAVSAGEKVTMRCKSSQSLVNNRTRKNYLAWYQQKPGQPPKLLIYWASTRESGVPDRFTGSGSGTDFTLTISSVQAEDLAVYYCAQSFILRTFGGGTKLEIK	ELISA (A450)	A450	0.05
WBP3311_2.383.47 (antibody, V domains shown, Mouse monoclonal antibody from hybridoma) VH: QVQLQQSGPELVKPGASVRISCKTSGFTFTNYYIHWVIQRPGQGLEWIGWISPENGNTKYNENFQDKATLTADISSSTAYMHLSSLTSEDSAVYFCARDGYSLYYFDYWGQGTTLTVSS VL: DIVMSQSPSSLTVSAGEKVTMSCKSSQSLLNSRTRKNYLAWYQQKPGQSPKLLIYWASIRVSGVPDRFTGSGSGTTFTLTISGVQAEDLAVYYCTQSHTLRTFGGGTKLEIK	ELISA (A450)	A450	0.05
WBP3311_2.482.5 (antibody, V domains shown, Mouse monoclonal antibody from hybridoma; also called W3311-2.482.5) VH: QVQLQQSGPELVKPGSSVKISCKPSGYTFTTYYIHWVKQRPGQGLEWIGWIFPGSDNIKYNENFKDKATLTADTSSSTAYMQLSSLTSEDSAVYFCARDSVSRYYFDYWGQGTILTVSS VL: DIVMSQSPSSLAVSAGEKVTMSCKSSQSLVNDRTRKNYLAWYQQKPGLSPKLLIYWASTRESGVPDRFTGSGSGTDFTLTISSVQAEDLAVYYCAQSFILRTFGGGTKLEIK	ELISA (A450)	A450	0.06

# query: ELISA (A450) of entry WBP3311_2.166.48 (antibody, IgG2a, V domains shown, Mouse monoclonal antibody from hybridoma; also called W3311-2.166.48; W3311_2.166.48) VH: QVQLQQSGPELVKPGASVKIACKASGYSFTTYYIHWVKQRPGQGLEWIGWIFPGNDNIKYSEKFKGKATLTADTSSSTAYMQLSSLTSEDSAVYFCAIDSVSIYYFDYWGQGTTLTVSS VL: DIVMSQSPSSLAVSAGEKVTMSCKSSQSLLNSRTRKNYLAWYQQKPGQSPKLLIYWASTRKSGVPDRFTGSGSGTDFTLTINSVQAEDLAVYYCTQSFILRTFGGGTKLEIK
0.05

Any idea what ELISA (A450) was measured for WBP331_2.488.33 (antibody, V domains shown, Mouse monoclonal antibody from hybridoma; also called WBP3311_2.488.33; W3311-2.488.33) VH: QVQLQQSGPELVKPGTSVKISCKASGFSFTNYYIHWVKQRPGQGPEWIGWIFPGTVNTKYNEKFKGKATLTADTSSNTAFMQLSSLTSADSAVYFCARDSVGIYYFDFWGLGTTLTVSS VL: DIVMSQSPSSLAVSAGEKVTVSCKSSQSLLNNRTRKNYLAWYQQKPGQSPKLLIYWASTRESGVPDRFTGSGSGTDFTLTISSVQAEDLAVYYCTQSFILRTFGGGTKLEIK ?
0.06

What does the data say about its ELISA (A450)? Entry: WBP3311_2.615.8 (antibody, V domains shown, Mouse monoclonal antibody from hybridoma; also called W3311-2.615.8) VH: QVQLQQSGPELVKPGTSMKISCKASGYSFTDFYTHWVRQRPGQGLEWIGWIFPGSDNIKYNEKFKGKATLTADTSSSTAYMQLSSLTSEDSAVYFCARDSVSVYYFDYWGQGTTLTVSS VL: DIVMSQSPSSLAVTAGEKVTMSCKSSQSLLNIRTRKNYLAWYQQKPGQSPKLLIYWASTRDSGVPDRFTGSGSGTDFTLTISSVQAEDLAVYYCTQSFILRTFGGGTKLEIK
0.05
